Where these numbers come from: BindingDB's records for doi:10.1021/jm00114a027

Experiment: Compound was tested for binding affinity to dopamine reuptake sites in the tissue homogenates prepared from […] striatum using [3H]CFT as radioligand
MEASURED METRIC: pIC50
Just so you know, pIC50 here is -log10 of the concentration in molar units; reply with that number alone.

Problem: Consider the compound COC(=O)C1C(c2ccc(I)cc2)CC2CCC1N2C (configuration not stated) and give its measured pIC50.
Solution: 7.06

Problem: One more compound: "COC(=O)[C@@H]1C2CC[C@H](C[C@@H]1c1ccc(I)cc1)N2C"
Solution: 8.80
